Assay Method Text: inhibitors of mutant huntingtin aggregation, primary screen, imaging, exon1htt(103Q)mCFP cells, high-content imaging (AID 483);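 further: compound exposure lasted 3 days before fixation; percent of the per-plate median nuclei count of sample wells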
Recorded Conditions: exon1htt(103Q)mCFP cell line, aggregate imaging, at 2 µM; measured here: cell count, toxicity
Attribute Measured: nuclei count (%)
One number for each entry, in %.

List reported nuclei count for each of these compounds:
1. CC[C@H](C)C(=O)O[C@H]1C[C@@H](C)C=C2C=C[C@H](C)[C@H](CC[C@@H]3C[C@@H](O)CC(=O)O3)[C@H]21
2. CCOC(=O)Cc1nnc(Nc2cccc(O)c2)c2ccccc12
3. COC(=O)CNC(=O)c1c(C)cc(=O)oc1C
4. O=C1CSC(=Nc2ccc(O)cc2)N1c1ccc(O)cc1

[105, 99.2, 110, 95.8]

List reported nuclei count for each of these compounds:
1. O=C(CCCN1C(=O)c2ccccc2C1=O)N1CCC(c2ccccc2)C1 (stereo not drawn)
2. CCCC(=O)N1c2ccccc2NC2=C(C(=O)CCC2)C1c1ccc(F)cc1 (stereo not drawn)
3. CCC(C(=O)OCCN(CC)CC)c1ccccc1 (stereo not drawn)
4. COc1cc2[nH]c3c(=O)n(CCN(C(C)C)C(C)C)cnc3c2cc1OC
5. C=CCn1c(N)c(C(=O)OC(C)(C)C)c2nc3ccccc3nc21
6. COc1ccc(-c2nnc3sc(-c4c(OC)cccc4OC)nn23)cc1

[61.9, 124, 104, 102, 100, 28.4]

* * *

Assay Method Text: inhibitors of larval lipid processing in zebrafish, primary screen, whole organism, PED6 fluorescence, gall bladder and intestine (AID 686);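 further: larvae 5 to 7 days old with five fish per well; signal comes from phospholipase A2 cleavage of quenched PED6 carried via bile; overnight exposure to compound and PED6 before scoring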
Recorded Conditions: Zebrafish larvae PED6 lipid processing, fluorescence scoring; screened at 20 µM (by protocol)
Calls of active or inactive are those of the source.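 The calls were made as follows: active = a full or partial loss of lipid-probe fluorescence in the fish gall bladder, intestine or both, judged by eye; inactive = no fluorescence loss, or compound toxic to the fish.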
Return exactly one item of active, inactive

# example entries with known answers
| Compound | Category Label |
| --- | --- |
| Cc1nc2sccn2c(=O)c1CCN1CCC(=C(c2ccccc2)c2ccc(F)cc2)CC1 | inactive |
| C=CCn1c(-c2ccccc2)n[nH]c1=S | inactive |
| NS(=O)(=O)c1cc2c(cc1Cl)NC=NS2(=O)=O | inactive |
| CCCOc1ccc(N2C(=O)CC(N(Cc3ccc(S(N)(=O)=O)cc3)C(=O)CC)C2=O)cc1 (configuration not stated) | inactive |
| N#Cc1nc(COc2ccc(Br)cc2)oc1N1CCCC1 | inactive |
| COC(=O)c1cc(Br)c(=O)n(CCc2ccc(F)cc2)c1 | active |
| CCOC(=O)C1CCN(c2nc3ccccc3nc2C(C#N)C(=O)OC(C)C)CC1 (configuration not stated) | inactive |
| O=C1CCc2nc3ccccc3c(=O)n2N1 | inactive |
| CC/C(C)=C1\SC(N2CCN(C(C)=O)CC2)=NC1=O | inactive |
| NNC(=O)c1ccncc1 | inactive |

Tell me the assay call for `S=c1[nH]nc(-c2ccccc2)n1Cc1ccccc1` please.
inactive

Tell me the assay call for `COC(=O)CCC(=O)CN` please.
inactive

* * *

Assay Method Text: DUSP6 inhibitors restoring Erk phosphorylation by chemical complementation, primary imaging in DUSP6-transfected HeLa (AID 609)
Recorded Conditions: HeLa MKP-3 transfected, phospho-Erk imaging KS statistic; measured here: nuclear pErk red intensity z-score; at 10 µM; stronger effect = higher value; cells stimulated with TPA for 15 min
Attribute Measured: z-score
Numbers only.

Recorded results for 4 compounds are shown here.
| Compound | z-score |
| --- | --- |
| Nc1nc(NC(=O)c2cccs2)nn1-c1ccccc1 | 1.83 |
| COc1ccc(OC)c(NC(=O)CSc2nnc(-c3ccco3)n2-c2ccc(C(=O)O)cc2)c1 | -0.476 |
| CCOC(=O)c1[nH]c2ccccc2c1NC(=O)CCN1CCN(C(=O)OCC)CC1 | 1.55 |
| COc1cccc(C2C(C(=O)c3cc4ccccc4o3)=C(O)C(=O)N2CCN(C)C)c1OC (stereo not given) | -1.27 |

Here's the next entry for you.
So what's the measured z-score for this one? COc1ccc(CCNC2CC(C)N(C)CC2C)cc1OC (stereo not given)
2.07
